Tested on: Glut4
Measurement protocol: Glut4 mRNA expression in adipocytes (real-time PCR)
Type: cell-based, human
Run parameters: differentiating adipocytes transfected with oligomeric compound; Table 75
Description: Expression of the four hallmark genes, HSL, aP2, Glut4, and PPARγ, is also measured in adipocytes transfected with oligomeric compounds of the invention. Cells are lysed on day nine post-transfection and total RNA is harvested. The amount of total RNA in each sample is determined using a Ribogreen Assay (Invitrogen Life Technologies, Carlsbad, Calif.). […]
In the oligonucleotide strings, read from the 5' end, every base follows the letter of its sugar. An asterisk marks phosphorothioate; unmarked linkages are phosphodiester. Other units and linkages are bracketed, terminal groups are in braces. A string of capitals states the bases alone. e = 2'-O-(2-methoxyethyl) (MOE); [5mC] = 5-methylcytosine
Readout name: GLUT4 mRNA

As a guide, the following entries are already answered.
>  <Substance>
327898 (antisense eG*eT*eA*eG*eT*eG*e[5mC]*eT*eT*eT*e[5mC]*eT*eA*e[5mC]*eT*eT*eT*eA*eT*eG) [compound 327898]

>  <GLUT4 mRNA>
82 percentage of untreated control (UTC)

$$$$
>  <Substance>
327966 (antisense eA*eT*e[5mC]*e[5mC]*eA*eA*eT*e[5mC]*eA*eG*eT*eT*e[5mC]*e[5mC]*eT*eG*eA*eT*eG*e[5mC]*eA*eG*eT*eA) [compound 327966]

>  <GLUT4 mRNA>
43 percentage of untreated control (UTC)

$$$$

For each of the substances below, state GLUT4 mRNA.
1. 327944 (antisense eA*eA*eA*eG*eT*eG*eT*e[5mC]*eA*eG*eA*eT*eA*e[5mC]*eG*eG*eT*eG*eT*eG*eG) [compound 327944]
2. 327918 (antisense e[5mC]*eT*eA*eG*eT*eA*e[5mC]*eA*eT*e[5mC]*eA*eT*e[5mC]*eT*eA*eT*eA*e[5mC]*eT*eG*eT*eA) [compound 327918]

## Result
1: 28 percentage of untreated control (UTC); 2: 66 percentage of untreated control (UTC)

* * *

System: HSL
Measurement protocol: HSL mRNA expression in adipocytes (real-time PCR)
Type: cell-based, human
Run parameters: differentiating adipocytes transfected with oligomeric compound
In the oligonucleotide strings, read from the 5' end, every base follows the letter of its sugar. An asterisk marks phosphorothioate; unmarked linkages are phosphodiester. Other units and linkages are bracketed, terminal groups are in braces. A string of capitals states the bases alone. e = 2'-O-(2-methoxyethyl) (MOE); [5mC] = 5-methylcytosine; d = 2'-deoxy (DNA)
Provide the recorded HSL mRNA for the entries that follow.

>  <Substance>
328677 (eT*e[5mC]*e[5mC]*eT*eG*dG*dA*dT*dG*dA*dT*dA*dT*d[5mC]*dT*eA*e[5mC]*e[5mC]*eT*e[5mC]; antisense) [compound 328677]

>  <Measured on>
HSL

>  <HSL mRNA>
68 percentage of untreated control (UTC)

$$$$

## Task HSL mRNA for 327877 (antisense e[5mC]*eG*e[5mC]*e[5mC]*eA*eA*eT*eA*eT*eT*eT*eA*e[5mC]*eG*eT*eG*e[5mC]*eT*eG*e[5mC]*eT*eA) [compound 327877] ?
## Result 82 percentage of untreated control (UTC)

* * *

System: HeLa cells
Measurement protocol: Cell cycle assay in HeLa cells
Type: cell-based, human
Run parameters: HeLa cells, 150 nM oligomeric compound, 24 hours, relative to untreated control (UTC = 100)
In the oligonucleotide strings, read from the 5' end, every base follows the letter of its sugar. An asterisk marks phosphorothioate; unmarked linkages are phosphodiester. Other units and linkages are bracketed, terminal groups are in braces. A string of capitals states the bases alone. e = 2'-O-(2-methoxyethyl) (MOE); [5mC] = 5-methylcytosine; d = 2'-deoxy (DNA)
Provide the recorded % cells aneuploid for the entries that follow.
Answers are plain numbers, in %.

>  <Substance>
327901 (antisense eT*eG*eA*eG*e[5mC]*eT*eA*e[5mC]*eA*eG*eT*eG*e[5mC]*eT*eT*e[5mC]*eA*eT*e[5mC]*eT*e[5mC]*eA) [compound 327901]

>  <% cells aneuploid / %>
90

$$$$
>  <Substance>
338833 (antisense TCGTGCACCTGAGGAGTCTG; all 2'-MOE, all phosphorothioate, methylation of C not given here) [compound 338833]

>  <% cells aneuploid / %>
185

$$$$
>  <Substance>
340925 (antisense GTGGTAATCCCTGGCAATGTGAT; sugars from the 5' end e5 d10 e8, all phosphorothioate, methylation of C not given here) [compound 340925]

>  <% cells aneuploid / %>
73

$$$$

For each of the substances below, state % cells aneuploid.
1. 327919 (antisense eG*eA*eA*eA*e[5mC]*e[5mC]*e[5mC]*eA*eG*e[5mC]*eA*eG*eA*e[5mC]*eA*eA*eT*eG*eT*eA*eG*e[5mC]*eT) [compound 327919]
2. 328676 (eA*e[5mC]*e[5mC]*eT*e[5mC]*d[5mC]*d[5mC]*dA*dG*d[5mC]*d[5mC]*dA*dA*dT*d[5mC]*e[5mC]*eA*eT*eG*eT; antisense) [compound 328676]

## Result
[96, 169]

* * *

System: PPARγ
Measurement protocol: PPARγ mRNA expression in adipocytes (real-time PCR)
Assay type: cell-based, human
Run parameters: differentiating adipocytes transfected with oligomeric compound; Table 75
In the oligonucleotide strings, read from the 5' end, every base follows the letter of its sugar. An asterisk marks phosphorothioate; unmarked linkages are phosphodiester. Other units and linkages are bracketed, terminal groups are in braces. A string of capitals states the bases alone. e = 2'-O-(2-methoxyethyl) (MOE); [5mC] = 5-methylcytosine
Readout name: PPAR gamma mRNA

As a guide, the following entries are already answered.
>  <Substance>
327911 (antisense eG*e[5mC]*eT*eA*e[5mC]*e[5mC]*eT*eG*e[5mC]*eA*e[5mC]*eT*eG*eT*eA*eA*eG*e[5mC]*eA*e[5mC]*eT*eT*eT*eT) [compound 327911]

>  <PPAR gamma mRNA>
75 percentage of untreated control (UTC)

$$$$
>  <Substance>
348119 (UCCAUAAAGUAGGAAACACUACA; anti-miR; all 2'-MOE, all phosphorothioate, methylation of C and T or U not given here) [compound 348119]

>  <PPAR gamma mRNA>
90 percentage of untreated control (UTC)

$$$$
>  <Substance>
328103 (antisense e[5mC]*e[5mC]*e[5mC]*eA*eA*eT*eA*eT*e[5mC]*eA*eA*eA*e[5mC]*eA*eT*eA*eT*e[5mC]*eA) [compound 328103]

>  <PPAR gamma mRNA>
83 percentage of untreated control (UTC)

$$$$
>  <Substance>
328096 (antisense e[5mC]*e[5mC]*eT*e[5mC]*eT*e[5mC]*eA*eA*eA*eG*eA*eT*eT*eT*e[5mC]*e[5mC]*eT*eG*eT*e[5mC]*eA) [compound 328096]

>  <PPAR gamma mRNA>
89 percentage of untreated control (UTC)

$$$$
>  <Substance>
328092 (antisense eG*eG*eT*eA*eG*eG*eT*eG*eG*eA*eA*eT*eA*e[5mC]*eT*eA*eT*eA*eA*e[5mC]*eA) [compound 328092]

>  <PPAR gamma mRNA>
86 percentage of untreated control (UTC)

$$$$

For each of the substances below, state PPAR gamma mRNA.
1. 327891 (antisense eG*eG*e[5mC]*e[5mC]*eG*eT*eG*eA*e[5mC]*eT*eG*eG*eA*eG*eA*e[5mC]*eT*eG*eT*eT*eA) [compound 327891]
2. 340356 (antisense CUCAAUAGACUGUGAGCUCCUU; all 2'-MOE, all phosphorothioate, methylation of C and T or U not given here) [compound 340356]
3. 340343 (antisense ACAGGAGUCUGAGCAUUUGA; all 2'-MOE, all phosphorothioate, methylation of C and T or U not given here) [compound 340343]
4. 346915 (ACAUCGUUACCAGACAGUGUUA; all 2'-MOE, all phosphorothioate, methylation of C and T or U not given here) [compound 346915]

## Result
1: 50 percentage of untreated control (UTC); 2: 62 percentage of untreated control (UTC); 3: 59 percentage of untreated control (UTC); 4: 90 percentage of untreated control (UTC)

* * *

Tested on: HeLa cells
Measurement protocol: Cell cycle assay in HeLa cells
Type: cell-based, human
Run parameters: HeLa cells, 150 nM oligomeric compound, 48 hours after treatment; relative to untreated control (UTC=100)
In the oligonucleotide strings, read from the 5' end, every base follows the letter of its sugar. An asterisk marks phosphorothioate; unmarked linkages are phosphodiester. Other units and linkages are bracketed, terminal groups are in braces. A string of capitals states the bases alone. e = 2'-O-(2-methoxyethyl) (MOE); [5mC] = 5-methylcytosine; d = 2'-deoxy (DNA)
Provide the recorded % cells in cell cycle phase: aneuploid for the entries that follow.
One number for each entry, in %.

As a guide, the following entries are already answered.
>  <Substance>
327944 (antisense eA*eA*eA*eG*eT*eG*eT*e[5mC]*eA*eG*eA*eT*eA*e[5mC]*eG*eG*eT*eG*eT*eG*eG) [compound 327944]

>  <Test result>
78

$$$$
>  <Substance>
327908 (antisense e[5mC]*eA*eA*eT*eG*e[5mC]*eA*eA*e[5mC]*eT*eA*e[5mC]*eA*eA*eT*eG*e[5mC]*eA*e[5mC]) [compound 327908]

>  <Test result>
93

$$$$
>  <Substance>
327889 (antisense eG*eT*eG*eG*eT*eA*eA*eT*e[5mC]*e[5mC]*e[5mC]*eT*eG*eG*e[5mC]*eA*eA*eT*eG*eT*eG*eA*eT) [compound 327889]

>  <Test result>
101

$$$$
>  <Substance>
328342 (e[5mC]*eA*eA*eT*eT*dG*d[5mC]*dG*d[5mC]*dT*dA*d[5mC]*dA*dG*dA*eA*e[5mC]*eT*eG*eT) [compound 328342]

>  <Test result>
107

$$$$

For each of the substances below, state % cells in cell cycle phase: aneuploid.
1. 328383 (eA*eG*eA*eG*eG*dG*dG*dA*dG*dA*d[5mC]*dG*dA*dG*dA*eG*e[5mC]*eA*e[5mC]*eT) [compound 328383]
2. 338741 (antisense GCTTCACAATTAGACCATCC; all 2'-MOE, all phosphorothioate, methylation of C not given here) [compound 338741]
3. 328674 (eT*eG*e[5mC]*e[5mC]*e[5mC]*dT*dG*d[5mC]*dT*d[5mC]*dA*dG*dA*dG*d[5mC]*e[5mC]*e[5mC]*eT*eA*eG; antisense) [compound 328674]
4. 327906 (antisense eT*e[5mC]*eA*eT*eA*eG*e[5mC]*e[5mC]*e[5mC]*eT*eG*eT*eA*e[5mC]*eA*eA*eT*eG*e[5mC]*eT*eG*e[5mC]*eT) [compound 327906]
5. 338809 (antisense CTGCTCCAGAGCCCGAGTCG; all 2'-MOE, all phosphorothioate, methylation of C not given here) [compound 338809]
6. 328396 (antisense e[5mC]*eT*eG*eG*eT*dT*dG*dG*dG*dT*dA*dT*dG*dA*dG*eA*e[5mC]*eA*eG*eA) [compound 328396]
7. 327946 (antisense eA*eG*eG*e[5mC]*eG*eA*eA*eG*eG*eA*eT*eG*eA*e[5mC]*eA*eA*eA*eG*eG*eG*eA*eA) [compound 327946]

## Result
1: 90; 2: 170; 3: 134; 4: 83; 5: 157; 6: 129; 7: 76

Measured values drawn from patent US8178506B2 for this set.
